Molecular target: T1, recombinant Hsp90α (human, UniProt P07900 1-732)
T1 construct: source: bought: Abcam (recombinant)
Assay: far-Western, overlay or dot blot
Details: both partners purified
recorded.endpoint: binding result

Would you please look over these solved cases?
Request: Retrieve binding result measured for NYKIEMKNNKIILLD (source: synthetic peptide (Apeptide, Shanghai; purity >95%)) [L16] and print it.
Response: binds

Request: Report binding result, nothing else, for this binder: ENFKFFGQYANLKELRK (source: synthetic peptide (Apeptide, Shanghai; purity >95%)) [L21]
Response: binds

Request: Supply recorded binding result for L26 (source: synthetic peptide (Apeptide, Shanghai; purity >95%)) peptide: DEIVKELRSRYNISTEKSPILKMHIDGDLKGSSVGYRKLEIDFSKRENSKLSVIEFLSYKPAKK here.
Response: binds

Request: Name the recorded binding result of the item NTRTAKGHYFVTTFYRNG (source: synthetic peptide (Apeptide, Shanghai; purity >95%)) [L10] in your answer.
Response: binds

Give one value of binding result per listed binder.
1. TAKGHYFVTTFYRNG (source: synthetic peptide (Apeptide, Shanghai; purity >95%)) [L15]
2. GHYFVTTFY (source: synthetic peptide (Apeptide, Shanghai; purity >95%)) [L13]

Response:
["binds", "binds"]

The reported measurements were obtained from paper PMC10117725.
